Each item that follows carries a reported IC50.
- System: XBP1(u)-luciferase splicing reporter in HepG2 hepatoma cells
- Assay name: HepG2 XBP1 reporter assay (XBP1(u)-Luc)
- Format: cell-based
- Reported conditions: Homo sapiens, 6 h, six hours after addition of compound

Example entries begin here.
{"Molecule": "Cc1cc(N2CCCOC[C@@H]2c2cc(N3CC[C@H](O)C3)ccc2Cl)nc(N)n1 [D-64]", "Experimental target": "XBP1(u)-luciferase splicing reporter in HepG2 hepatoma cells", "IC50": "600 to 2000 nM"}
{"Molecule": "Cc1cc(N2CCCOC[C@H]2c2cc(O)c(C(=O)NC3CC3)cc2Cl)nc(N)n1 [D-186]", "Experimental target": "XBP1(u)-luciferase splicing reporter in HepG2 hepatoma cells", "IC50": "≥ 5000 nM"}
{"Molecule": "Cc1cc(N2CCCOCC2c2ccc(NC(=O)CC(C)C)cc2Cl)nc(N)n1 [D-92]", "Experimental target": "XBP1(u)-luciferase splicing reporter in HepG2 hepatoma cells", "IC50": "600 to 2000 nM"}
{"Molecule": "CNC(=O)c1cc(Cl)c(C2COCCCN2c2cc(C)nc(N)n2)cc1O [D-118]", "Experimental target": "XBP1(u)-luciferase splicing reporter in HepG2 hepatoma cells", "IC50": "600 to 2000 nM"}
{"Molecule": "Cc1cc(N2CCCOCC2c2ccc(NC(=O)CC(C)(C)C)cc2Cl)nc(N)n1 [D-96]", "Experimental target": "XBP1(u)-luciferase splicing reporter in HepG2 hepatoma cells", "IC50": "600 to 2000 nM"}

QUERY: Please give the measured IC50 for this molecule: Cc1cc(N2CCCOC[C@@H]2c2cc3c(cc2Cl)NC[C@@](C)(C(=O)N2CCOCC2)O3)nc(N)n1 [D-126]
RESULT: < 600 nM

QUERY: Please give the measured IC50 for this molecule: CCOC(=O)[C@]1(C)CNc2cc(Cl)c([C@H]3COCCCN3c3cc(C)nc(N)n3)cc2O1 [D-36]
RESULT: < 600 nM

QUERY: Please give the measured IC50 for this molecule: CCOC(=O)[C@]1(C)CNc2cc(Cl)c([C@@H]3COCCCN3c3cc(C)nc(N)n3)cc2O1 [D-155]
RESULT: ≥ 5000 nM

QUERY: Please give the measured IC50 for this molecule: CCOc1cc(C2COCCCN2c2cc(C)nc(N)n2)c(Cl)cc1OCC(=O)NC(C)(C)C [D-47]
RESULT: 600 to 2000 nM

* * *

- Tested on: XBP1(u)-luciferase splicing reporter in HepG2 hepatoma cells
- Assay name: HepG2 XBP1 reporter assay (XBP1(u)-Luc)
- Assay type: cell-based
- Reported conditions: Homo sapiens, 6 hours after compound addition, Table 4
pIC50: −log10 of the molar value.
Each item that follows carries a reported pIC50.

Example entries begin here.
{"Compound": "CC(=O)Nc1cc(Cl)c(N2CCCOCC2c2cc(C)nc(N)n2)cc1C (stereo not shown)", "pIC50": "5.70 to 6.22"}
{"Compound": "Cc1cc(N2CCCOC[C@@H]2c2cc3c(cc2Cl)OCC(=O)N3)nc(N)n1", "pIC50": "≤ 5.30"}
{"Compound": "Cc1cc(N2CCCOC=C2c2c(O)cc(N3CCC(C)(O)CC3)cc2Cl)nc(N)n1", "pIC50": "5.30 to 5.70"}

QUERY: Please give the measured pIC50 for this compound: Cc1cc(N2CCCOCC2c2cc(F)c(Cl)cc2Cl)nc(N)n1 (stereo not shown)
RESULT: 5.30 to 5.70

QUERY: Please give the measured pIC50 for this compound: "COc1cc([C@H]2COCCCN2c2cc(C)nc(N)n2)c(Cl)cc1O"
RESULT: > 6.22

QUERY: Please give the measured pIC50 for this compound: COc1cc(Cl)c(C2COCCCN2c2cc(C)nc(N)n2)cc1F (stereo not shown)
RESULT: 5.70 to 6.22

QUERY: Please give the measured pIC50 for this compound: COc1cc(C2COCCCN2c2cc(C)nc(N)n2)c(Cl)cc1Cl (stereo not shown)
RESULT: 5.30 to 5.70

QUERY: Please give the measured pIC50 for this compound: C=CCOc1cc(Cl)c(C2COCCCN2c2cc(C)nc(N)n2)cc1OC (stereo not shown)
RESULT: 5.70 to 6.22

QUERY: Please give the measured pIC50 for this compound: Cc1cc(N2CCCOCC2c2cc(Cl)c(C)cc2Cl)nc(N)n1 (stereo not shown)
RESULT: 5.70 to 6.22

QUERY: Please give the measured pIC50 for this compound: CCCOc1cc(Cl)c(C2COCCCN2c2cc(C)nc(N)n2)cc1OC (stereo not shown)
RESULT: 5.70 to 6.22

* * *

- System: β-catenin-TCF-mediated reporter transcription activity in Colo 205 cells
- Assay name: Colo 205 reporter assay (TCF/LEF promoter-driven firefly luciferase)
- Format: cell-based
- Reported conditions: Colo 205 TCF/LEF luciferase reporter, 5 hours after compound addition, 384 well; read-out: Colo205 IC50
pIC50: −log10 of the molar value.
Measurement kind: pIC50

QUERY: Please give the measured pIC50 for this molecule: Cc1cc(N2CCCOCC2c2cc([S+](C)[O-])ccc2Cl)nc(N)n1 (stereo not shown) [I-123]
RESULT: 6.00 to 6.52

* * *

- Test system: XBP1(u)-luciferase splicing reporter in HepG2 hepatoma cells
- Assay name: HepG2 XBP1 reporter assay (XBP1(u)-Luc)
- Format: cell-based
- Reported conditions: Homo sapiens, 6 hours after compound addition, Table 4
pIC50: −log10 of the molar value.
Each item that follows carries a reported pIC50.

Example entries begin here.
{"Molecule": "COc1cc(Cl)c(C2COCCCN2c2cc(C)nc(N)n2)cc1OC (centres unmarked)", "Experimental target": "XBP1(u)-luciferase splicing reporter in HepG2 hepatoma cells", "pIC50": "5.70 to 6.22"}
{"Molecule": "Cc1cc(N2CCCOCC2c2cc(Cl)c(Cl)cc2Cl)nc(N)n1 (centres unmarked)", "Experimental target": "XBP1(u)-luciferase splicing reporter in HepG2 hepatoma cells", "pIC50": "≤ 5.30"}
{"Molecule": "Cc1cc(N2CCCOCC2c2cc(Cl)c(OC(F)F)cc2Cl)nc(N)n1 (centres unmarked)", "Experimental target": "XBP1(u)-luciferase splicing reporter in HepG2 hepatoma cells", "pIC50": "5.70 to 6.22"}
{"Molecule": "COc1cc(C2COCCCN2c2cc(C)nc(N)n2)c(Cl)cc1OCC(N)=O (centres unmarked)", "Experimental target": "XBP1(u)-luciferase splicing reporter in HepG2 hepatoma cells", "pIC50": "5.70 to 6.22"}
{"Molecule": "CNc1cc(Cl)c(C2COCCCN2c2cc(C)nc(N)n2)cc1C (centres unmarked)", "Experimental target": "XBP1(u)-luciferase splicing reporter in HepG2 hepatoma cells", "pIC50": "> 6.22"}

QUERY: Please give the measured pIC50 for this molecule: "COc1cc(Cl)c([C@H]2COCCCN2c2cc(C)nc(N)n2)cc1O"
RESULT: > 6.22

QUERY: Please give the measured pIC50 for this molecule: Cc1cc(N2CCCOCC2c2cc(Cl)c(O)cc2Cl)nc(N)n1 (centres unmarked)
RESULT: 5.70 to 6.22

QUERY: Please give the measured pIC50 for this molecule: "CCOc1cc(Cl)c([C@@H]2COCCCN2c2cc(C)nc(N)n2)cc1OC"
RESULT: ≤ 5.30

QUERY: Please give the measured pIC50 for this molecule: COc1cc(C2COCCCN2c2cc(C)nc(N)n2)c(Cl)cc1N (centres unmarked)
RESULT: > 6.22

QUERY: Please give the measured pIC50 for this molecule: COc1cc(C2COCCCN2c2cc(C)nc(N)n2)c(Cl)cc1O (centres unmarked)
RESULT: 5.70 to 6.22

QUERY: Please give the measured pIC50 for this molecule: "Cc1cc(N2CCCOC[C@@H]2c2ccc(N3CCC(C)(O)CC3)c(F)c2Cl)nc(N)n1"
RESULT: 5.70 to 6.22

* * *

- Tested on: XBP1(u)-luciferase splicing reporter in HepG2 hepatoma cells
- Assay name: HepG2 XBP1 reporter assay (XBP1(u)-Luc)
- Assay type: cell-based
- Reported conditions: Homo sapiens, 6 hours after compound addition, Table 4
pIC50: −log10 of the molar value.
Each item that follows carries a reported pIC50.

QUERY: GET /values?readout=pIC50&system=XBP1(u)-luciferase splicing reporter in HepG2 hepatoma cells&item= "CC1=C(F)CN(c2ccc([C@H]3COCCCN3c3cc(C)nc(N)n3)c(Cl)c2)CC1"
RESULT: 5.70 to 6.22

QUERY: GET /values?readout=pIC50&system=XBP1(u)-luciferase splicing reporter in HepG2 hepatoma cells&item= Cc1cc(N2CCCOCC2c2cc(N)c(OC(F)(F)F)cc2Cl)nc(N)n1 (stereo not shown)
RESULT: > 6.22

QUERY: GET /values?readout=pIC50&system=XBP1(u)-luciferase splicing reporter in HepG2 hepatoma cells&item= Cc1cc(N2CCCOCC2c2cc3c(cc2Cl)n(C)c(=O)n3C)nc(N)n1 (stereo not shown)
RESULT: > 6.22

QUERY: GET /values?readout=pIC50&system=XBP1(u)-luciferase splicing reporter in HepG2 hepatoma cells&item= COc1cc(C2COCCCN2c2cc(C)nc(N)n2)c(Cl)cc1OCC#N (stereo not shown)
RESULT: > 6.22

QUERY: GET /values?readout=pIC50&system=XBP1(u)-luciferase splicing reporter in HepG2 hepatoma cells&item= COc1cc(Cl)c(C2COCCCN2c2cc(C)nc(N)n2)cc1Cl (stereo not shown)
RESULT: 5.70 to 6.22

QUERY: GET /values?readout=pIC50&system=XBP1(u)-luciferase splicing reporter in HepG2 hepatoma cells&item= COC(=O)COc1cc(Cl)c(C2COCCCN2c2cc(C)nc(N)n2)cc1OC (stereo not shown)
RESULT: 5.70 to 6.22

QUERY: GET /values?readout=pIC50&system=XBP1(u)-luciferase splicing reporter in HepG2 hepatoma cells&item= CCCOc1cc(Cl)c(C2COCCCN2c2cc(C)nc(N)n2)cc1OCC (stereo not shown)
RESULT: 5.70 to 6.22

QUERY: GET /values?readout=pIC50&system=XBP1(u)-luciferase splicing reporter in HepG2 hepatoma cells&item= CCNc1cc(Cl)c(C2COCCCN2c2cc(C)nc(N)n2)cc1C (stereo not shown)
RESULT: > 6.22

QUERY: GET /values?readout=pIC50&system=XBP1(u)-luciferase splicing reporter in HepG2 hepatoma cells&item= Cc1cc(N2CC(O)COC[C@@H]2c2ccc(N3CCC(C)(O)CC3)cc2Cl)nc(N)n1 (stereo partly shown)
RESULT: > 6.22

QUERY: GET /values?readout=pIC50&system=XBP1(u)-luciferase splicing reporter in HepG2 hepatoma cells&item= COc1cc(Cl)c(C2COCCCN2c2cc(C)nc(N)n2)cc1OC1CCC1 (stereo not shown)
RESULT: 5.30 to 5.70

QUERY: GET /values?readout=pIC50&system=XBP1(u)-luciferase splicing reporter in HepG2 hepatoma cells&item= Cc1cc(N2CCCOCC2c2ccc(CS(C)(=O)=O)cc2OC(F)F)nc(N)n1 (stereo not shown)
RESULT: > 6.22

QUERY: GET /values?readout=pIC50&system=XBP1(u)-luciferase splicing reporter in HepG2 hepatoma cells&item= Cc1cc(N2CCCOCC2c2cc3c(cc2Cl)CCCN3)nc(N)n1 (stereo not shown)
RESULT: 5.30 to 5.70
